tested on: Escherichia coli TOP10; assay: shrunken log2 fold change of peptide-encoding DNA abundance (4.5 h post-induction vs induction); higher = less antimicrobial activity (less host growth inhibition); conditions: time post-induction: 4.5 h; library: site-saturation at positions 5, 18, 19, 20;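 further: peptides expressed intracellularly from a pBAD plasmid library in pooled LB shake-flask culture, induced with 0.3% L-arabinose, DNA abundance read by NGS, three biological replicates, DESeq2 with apeglm shrinkage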
We'd kindly ask you to apply these shrunken log2 fold change classes: low = under 0.002, mid = from 0.002 up to 0.1, high = 0.1 and over

| sequence data | qualitative label |
| --- | --- |
| RRIRLRPPRLPRPRPRPAPMPRP | high |

### Prompt Band assignment needed for `RRIRNRPPRLPRPRPRPILKPRP` please.
### Response mid

### Prompt Please do the same for `RRIRPRPPRLPRPRPRPNDLPRP` as well.
### Response low

### Prompt Lookup `RRIRIRPPRLPRPRPRPIGWPRP`
### Response mid

### Prompt And what about the sequence `RRIRPRPPRLPRPRPRPRPYPRP` ?
### Response high

### Prompt Next: `RRIRNRPPRLPRPRPRPKRRPRP`
### Response low

### Prompt // query: `RRIRLRPPRLPRPRPRPCITPRP`
### Response low

### Prompt Also, `RRIRARPPRLPRPRPRPAHPPRP` please.
### Response high

### Prompt Also `RRIRQRPPRLPRPRPRPYPMPRP` , if possible.
### Response mid
